Test system: H1975 cells
experiment: Cell proliferation and growth inhibition assay (CCK-8) in H1975
Type: cell-based
condition info: Homo sapiens, NCI-H1975, 72 h, treated with test compounds for 72 hrs, CCK-8 viability, read-out: EGFR IC50 in H1975
Exercise: state measured pIC50 for each of the compounds provided.
Conceptually, pIC50 converts a concentration in mol/L into minus its log10.

[Q] Supply recorded pIC50 for `CCC(=O)Nc1cccc(Nc2ncc(C(F)(F)F)c(Nc3ccc(N4CCN(C(C)=O)CC4)cc3OC)n2)c1` here.
[A] 6.54

[Q] Write down pIC50 measured for item `Cc1cccc2c(-c3nc(Nc4ccc(N(C)CCN(C)C)c(N)c4)ncc3Cl)c[nH]c12`
[A] 6.54

[Q] Tell me pIC50 reported for `COc1cccc2c(-c3nc(Nc4ccc(N(C)CCN(C)C)c(NC(C)=O)c4)ncc3F)c[nH]c12`
[A] 6.02

[Q] Tell me its pIC50 given `CC(=O)Nc1cc(Nc2ncc(Cl)c(-c3c[nH]c4c(C)cccc34)n2)ccc1N(C)CCN(C)C` as the entry.
[A] 7.18

[Q] Input `CC(=O)Nc1cc(Nc2nccc(-c3c[nH]c4c(C)cccc34)n2)ccc1N(C)CCN(C)C` , output reported pIC50.
[A] 5.81

[Q] Read the entry `COc1cnc(Nc2ccc(N(C)CCN(C)C)c(N)c2)nc1-c1c[nH]c2c(OC)cccc12` and write its reported pIC50.
[A] 6.08

[Q] Please report the measured pIC50 for `CCC(=O)Nc1cc(Nc2nccc(-c3c[nH]c4c(OC)cccc34)n2)ccc1N(C)CCN(C)C`
[A] 5.65

[Q] Give recorded pIC50. `COc1cnc(Nc2ccc(N3CC[C@H](N(C)C)C3)c(NC(C)=O)c2)nc1-c1c[nH]c2c(OC)cccc12`
[A] 5.90

[Q] Complete the entry with pIC50 for `CCC(=O)Nc1cc(Nc2nccc(-c3c[nH]c4c(C)cccc34)n2)ccc1N(C)CCN(C)C`
[A] 5.82

[Q] Answer with the recorded pIC50 for the compound listed here: `CC(=O)Nc1cc(Nc2ncc(C(F)(F)F)c(-c3cn(C)c4c(C)cccc34)n2)ccc1N1CC[C@H](N(C)C)C1`
[A] 6.34

[Q] Return pIC50 for the following compound: `COc1cnc(Nc2ccc(N(C)CCN(C)C)c(NC(C)=O)c2)nc1-c1c[nH]c2c(C)cccc12`
[A] 5.96

[Q] Could you please provide reported pIC50 for `COc1cccc2c(-c3ccnc(Nc4ccc(N(C)CCN(C)C)c(N)c4)n3)c[nH]c12` ? Thanks!
[A] 5.95

[Q] For `CC(=O)Nc1cc(Nc2ncc(C(F)(F)F)c(-c3c[nH]c4c(F)cccc34)n2)ccc1N1CC[C@H](N(C)C)C1` , write its pIC50.
[A] 6.70

[Q] Given the compound `CC(=O)Nc1cc(Nc2ncc(C(F)(F)F)c(-c3c[nH]c4c(C)cccc34)n2)c(F)cc1N(C)CCN(C)C` , write its reported pIC50.
[A] 7.73

[Q] Consider the compound `COc1cnc(Nc2ccc(N(C)CCN(C)C)c(N)c2)nc1-c1c[nH]c2c(C)cccc12` and give its recorded pIC50.
[A] 6.10

====

Test system: H1975 cells
experiment: Cell proliferation and growth inhibition assay (CCK-8) in H1975
Type: cell-based
condition info: Homo sapiens, NCI-H1975, 72 h, treated with test compounds for 72 hrs, CCK-8 viability, read-out: EGFR IC50 in H1975
Simple rule here: IC50 less than 100 nM is condition met, otherwise condition not met.

[Q] Bench note: check whether `COc1cccc2c(-c3nc(Nc4ccc(N5CC[C@H](N(C)C)C5)c(N)c4)ncc3C(F)(F)F)c[nH]c12` shows IC50 below 100 nM
[A] condition not met

[Q] Is IC50 strictly under 100 nM for the entry `Cc1cccc2c(-c3nc(Nc4ccc(N(C)CCN(C)C)c(N)c4)ncc3C(F)(F)F)c[nH]c12` ?
[A] condition not met

[Q] Would you kindly verify if IC50 of `CCC(=O)Nc1cc(Nc2ncc(C(F)(F)F)c(-c3c[nH]c4c(C)cccc34)n2)ccc1N(C)CCN(C)C` is strictly less than 100 nM?
[A] condition met

[Q] Identify whether the compound `CC(=O)Nc1cc(Nc2ncc(Cl)c(-c3cn(C)c4c(C)cccc34)n2)ccc1N1CC[C@H](N(C)C)C1` records IC50 below 100 nM.
[A] condition not met

[Q] Is IC50 of `CCN(CCN(C)C)c1ccc(Nc2ncc(Cl)c(-c3c[nH]c4ccccc34)n2)cc1NC(C)=O` strictly below 100 nM?
[A] condition not met

[Q] Take the compound `CC(=O)Nc1cc(Nc2ncc(C(F)(F)F)c(-c3cn(C)c4ccccc34)n2)ccc1N(C)CCN(C)C` and say whether its IC50 is less than 100 nM.
[A] condition not met

[Q] IC50 under 100 nM? Item: `CN(C)CCN(C)c1ccc(Nc2ncc(C(F)(F)F)c(-c3c[nH]c4c(F)cccc34)n2)cc1N`
[A] condition met

====

Test system: H1975 cells
experiment: Cell proliferation and growth inhibition assay (CCK-8) in H1975
Type: cell-based
condition info: Homo sapiens, NCI-H1975, 72 h, treated with test compounds for 72 hrs, CCK-8 viability, read-out: EGFR IC50 in H1975
Description: MV-4-11 and H1975 cells were obtained from the American Type Culture Collection and KM12-luc cells were obtained from JCRB Cell Bank. […] Cell proliferation was assessed by CCK-8 assay (Yeasen) per the manufacturer's instructions. […] Absorbance was measured at OD450 using the Beckman DTX880. The data was calculated using GraphPad Prism version 6.01. […]
property measured: pIC50
Lab note: report pIC50 as minus log10 of the concentration in molar units, number only.

[Q] Tell me measured pIC50 for `COc1cccc2c(-c3nc(Nc4ccc(N5CC[C@H](N(C)C)C5)c(NC(C)=O)c4)ncc3C(F)(F)F)cn(C)c12` please.
[A] 6.05

[Q] Fill in pIC50 for record `CC(=O)Nc1cc(Nc2ncc(C(F)(F)F)c(-c3c[nH]c4c(F)cccc34)n2)ccc1N(C)CCN(C)C`
[A] 7.04

[Q] Fill in reported pIC50 for this entry: `COc1cccc2c(-c3nc(Nc4ccc(N(C)CCN(C)C)c(N)c4)ncc3C(F)(F)F)c[nH]c12`
[A] 6.82

[Q] Identify the reported pIC50 for the following entry. `CC(=O)Nc1cc(Nc2ncc(C(F)(F)F)c(-c3c[nH]c4c(C)cccc34)n2)ccc1N1CC[C@@H](N(C)C)C1`
[A] 7.05

[Q] State its pIC50: `COc1cnc(Nc2ccc(N3CC[C@H](N(C)C)C3)c(NC(C)=O)c2)nc1-c1c[nH]c2c(F)cccc12`
[A] 5.90

[Q] In one line, give reported pIC50 of the entry CC(=O)Nc1cc(Nc2ncc(Cl)c(-c3cn(C)c4ccccc34)n2)ccc1NCCN(C)C [Compound 400a] .
[A] 6.00

[Q] Provide pIC50 value for the following compound: `CCC(=O)Nc1cc(Nc2ncc(C(F)(F)F)c(-c3c[nH]c4c(OC)cccc34)n2)ccc1N(C)CCN(C)C`
[A] 7.17

[Q] Please report the measured pIC50 for `CC(=O)Nc1cc(Nc2ncc(C(F)(F)F)c(-c3c[nH]c4c(F)cccc34)n2)ccc1N1CC[C@@H](N(C)C)C1`
[A] 6.69

[Q] Please give measured pIC50 of the following entry: `COc1cccc2c(-c3nc(Nc4cc(NC(C)=O)c(N(C)CCN(C)C)cc4F)ncc3C(F)(F)F)c[nH]c12`
[A] 7.58

[Q] Supply pIC50 value. Item: `CCC(=O)Nc1cccc(Nc2ncc(F)c(Nc3ccc(N4CCN(C(C)=O)CC4)cc3OC)n2)c1`
[A] 5.55

[Q] Report pIC50, nothing else, for this compound: `COc1cccc2c(-c3nc(Nc4ccc(N(C)CCN(C)C)c(NC(C)=O)c4)ncc3Cl)c[nH]c12`
[A] 6.30

[Q] Using the record for COc1cccc2c(-c3nc(Nc4ccc(N5CC[C@H](N(C)C)C5)c(NC(C)=O)c4)ncc3C(F)(F)F)c[nH]c12 [Compound S-382a] , state its measured pIC50.
[A] 6.87

[Q] Annotate the compound `CC(=O)Nc1cc(Nc2ncc(C(F)(F)F)c(-c3cn(C)c4c(C)cccc34)n2)ccc1N(C)CCN(C)C` with its measured pIC50.
[A] 6.45

[Q] Provide measured pIC50 value, entry: `CC(=O)Nc1cc(Nc2ncc(F)c(-c3c[nH]c4c(C)cccc34)n2)ccc1N(C)CCN(C)C`
[A] 6.39

[Q] Return pIC50 for the following compound: `CCN(CCN(C)C)c1cc(F)c(Nc2nc(-c3cn(C)c4ccccc34)c3cc[nH]c3n2)cc1NC(C)=O`
[A] 5.96

[Q] Kindly indicate its recorded pIC50. Item: `CC(=O)Nc1cc(Nc2ncc(C(F)(F)F)c(-c3cn(C)c4c(C)cccc34)n2)ccc1N1CC[C@@H](N(C)C)C1`
[A] 6.03

[Q] Tell me its pIC50 given `CC(=O)Nc1cc(Nc2ncc(C(F)(F)F)c(-c3c[nH]c4c(C)cccc34)n2)ccc1N(C)CCN(C)C` as the entry.
[A] 7.33
